Values were extracted from patent US10947276B2.

method description: Peptide stability in human serum by MALDI-TOF mass spectrometry
Type: in vitro ADME
run parameters: 37° C., human serum/plasma, 0 to 24 h
assay metric: stability (integrity) compared to control Mut3DPT

KKWKKWKKWKK (Shuttle peptide Mut5DPT) = very stable
KKKKKWKKWKKK (Shuttle peptide Mut7DPT) = very stable
RRWRRWRRWRR (Shuttle peptide Mut6DPT) = very stable
